System: Mycolicibacterium smegmatis
TEST_SUMMARY: In vitro cytotoxicity against Mycobacterium smegmatis CIP (103599) was determined
Type: functional
Would you mind telling me the reported MIC of each entry?

Some solved entries appear below for comparison.
COMPOUND	MIC
O=C(Nc1ccc(CN2CCSCC2)cc1)c1ccc(-c2ccccc2)cc1	> 16 µg/mL
CN[C@@H]1[C@H](O[C@H]2[C@H](O[C@H]3[C@H](O)[C@@H](O)[C@H](N=C(N)N)[C@@H](O)[C@@H]3N=C(N)N)O[C@@H](C)[C@]2(O)C=O)O[C@@H](CO)[C@H](O)[C@H]1O [STREPTOMYCIN]	8 µg/mL
NNC(=O)c1ccncc1 [ISONIAZID]	64 µg/mL
C[N+](C)(Cc1ccc(-c2ccccc2)cc1)c1ccc(CN2CCSCC2)cc1.[I-]	> 16 µg/mL
CN(Cc1ccc(-c2ccccc2)cc1)c1ccc(CN2CCSCC2)cc1	> 16 µg/mL

Let us examine a further case.
Data request: Item c1ccc(-c2ccc(CNc3ccc(CN4CCSCC4)cc3)cc2)cc1 has what recorded MIC?
Data returned: > 16 µg/mL
